Target: Gal(a1-3)GalNAc
Test: glycan array binding signal (z-score within array); higher = stronger binding
Conditions: glycan notation: IUPAC condensed, linker removed
The entries come from a sample that favours the strongest signals as a whole.
We begin with a simple list: items and their reported glycan array binding signal (z-score).
Please give only the number in your answer, with no unit.

Sample records with glycan array binding signal (z-score):
In plain terms, YASPKCFRYPNGVLACT [Odorranalectin (Odorrana grahami), B3TFE9_RANGR] has a documented glycan array binding signal (z-score) of 0.618

Note to self: glycan array binding signal (z-score) recorded for CFEM-PPl (Pichia pastoris), F2QPV1 (protein) AVATPPACLLACAAEVVKESSDCDALNNIQCICENEGSAIHACLESTCPDGLSSTALQSFEDVCESVGTEANLDE was -0.249

New cases:
Entry AT5G01260(PC)(40) (Arabidopsis thaliana), Q9LFB0 (protein) MIGIGRTLTSSSPSKIILEDLPPGIYRYGTEIFTSVPRKTFHHIKFLRLDSAQSSRILKPVPLRSSSIKDSQVNVEDEEIEASNKTVRVRFQLRKECVFGEHFFIVGDDPVFGGLWDPETALPLNWSDGNVWTVDLDLPVGRLVEFKLLLKAQTGEILWQPGPNRALETWETNKTIRICEDWDNADLQMMIEEDFVPYTNISSIGSEDEDEVLGSVQQNSSVVAVENAGYVSDESAQNSSFSIQSEKTMEPSNGALTAREVIKEAMFTEEESPVLVPGLIPLSDLDNEQVEVINEGKAETFPEVDKKQEPKAERNKKAKVKAISLFEKSEQEAVKSVEQRQYNAVEEEQQRLETEPLGTPDVLFENDIQWGRRTLYKLLSNFRLF — recorded glycan array binding signal (z-score) = 2.32

Sample MGL2 (Mus musculus), Q8JZN1 (protein) MTMRYENFQNLEREEKNQEMRNGDKKGGMESPKFALIPSQSFLWRILSWTHLLLFSLGLSLLLLVVISVIGSQNSQLRRDLGTLRAILDNTTSKIKAEFQSLDSRADNFEKGISSLKVDVEDHRQELQAGRDLSQKVTSLESTLEKREQALKTDLSDLTDHVQQLETDLKALTCQLANLKNNGSEVACCPLHWTEHEGSCYWFSESEKSWPEADKYCRLENSHLVVVNSLEEQNFLQNRLANVLSWMGLTDQNGPWRWVDGTDFDKGFKNWRPLQPDNWHGHMLGGGEDCAHFSYDGRWNDDVCQRHYHWICETELGKASSAHSPQLIASVP ; glycan array binding signal (z-score) observed: -0.18
